- System: C33A
- experimental.protocol: Primary qHTS to identify gynecologic anti-cancer compounds using libraries of approved drugs and bioactive compounds (AID 1345084); also: nearly all actives have a fitted effect of over 55% in size
- assay.setup: Gynecologic cancer cell panel viability, ATPlite luminescence, 48 h; series mostly up to 57.5 µM
Records with an inconclusive call do not appear. Activity calls are given as the source filed them. Calls follow the shape of the dose curve; as a rule, active = well fitted cell-killing curve with a large enough effect; inconclusive = small, poorly fitted or top-dose-only effect, or effect the other way; inactive = flat fitted curve, though single readings scatter.

{"molecule": "C=CC(=O)N1CC(N2CCN(C(=O)CNc3cc(C4CC4)c(Cl)cc3O)CC2)C1", "outcome": "inactive"}
{"molecule": "COC(=O)C[C@H]1C(C)(C)[C@H](OC(=O)c2ccccc2)C2CC3=C4CC(=O)O[C@@H](c5ccoc5)[C@]4(C)CCC3[C@@]1(C)C2=O (stereo partly drawn)", "outcome": "inactive"}
{"molecule": "Cc1nc(NC(=O)N2CCC[C@H]2C(N)=O)sc1-c1ccnc(C(C)(C)C(F)(F)F)c1", "outcome": "inactive"}
